# MIC per entry
System: Klebsiella pneumoniae
Experiment: Antibacterial activity against Klebsiella pneumoniae X26
Type: functional
Conditions: Klebsiella pneumoniae; read-out: MIC
Just the number in µg/mL, nothing appended.

Entry CO/N=C(\C(=O)N[C@@H]1C(=O)N2C(C(=O)[O-])=C(C[n+]3cccc4c3CCC4)CS[C@H]12)c1csc(N)n1 ; MIC = 0.015

Entry CO/N=C(\C(=O)N[C@@H]1C(=O)N2C(C(=O)[O-])=C(C[n+]3ccc4c(c3)ncn4C)CS[C@H]12)c1csc(N)n1 ; MIC = 0.015

* * *

Experiment: Terminal half life in dogs at the dose of 20 mg/kg.
Format: ADME, organism-based, Canis lupus familiaris
Design: dose 20 mg/kg
Settings: dog, in vivo
measured_property: half-life (h)
Just the number in h, nothing appended.

Entry CO/N=C(\C(=O)N[C@@H]1C(=O)N2C(C(=O)[O-])=C(C[n+]3ccc4ncn(C)c4c3)CS[C@H]12)c1csc(N)n1 ; half-life = 1.17

* * *

Test: Terminal half life in dogs at the dose of 10 mg/kg.
Assay type: ADME, organism-based, Canis lupus familiaris
Parameters: dose 10 mg/kg
Settings: dog, in vivo
measured_property: half-life (h)
Just the number in h, nothing appended.

Entry CO/N=C(\C(=O)N[C@@H]1C(=O)N2C(C(=O)[O-])=C(C[n+]3ccc4ncn(C)c4c3)CS[C@H]12)c1csc(N)n1 ; half-life = 1.27

* * *

Test system: Streptococcus pyogenes
Assay: Antibacterial activity against Streptococcus pyogenes
Assay type: functional
# MIC per entry
Just the number in µg/mL, nothing appended.

                                   compound  measured_property  obs_value
0  CO/N=C(\C(=O)N[C@@H]1C(=O)N2C(C(=O)[O-])=C(C[n+]3cccc(CC(=O)O)c3)CS[C@H]12)c1csc(N)n1 (stereo in doubt; 17)                MIC       0.03
1  CO/N=C(\C(=O)N[C@@H]1C(=O)N2C(C(=O)[O-])=C(C[n+]3ccc(CC(=O)NO)cc3)CS[C@H]12)c1csc(N)n1 (stereo in doubt; 21)                MIC      0.015
2  CO/N=C(\C(=O)N[C@@H]1C(=O)N2C(C(=O)[O-])=C(C[n+]3cccc(CC(=O)O)c3)CS[C@H]12)c1csc(N)n1 (stereo in doubt; 6)                MIC      0.015
3  CO/N=C(\C(=O)N[C@@H]1C(=O)N2C(C(=O)[O-])=C(C[n+]3ccc(CC(=O)NO)cc3)CS[C@H]12)c1csc(N)n1 (stereo in doubt; 20)                MIC       0.06
4  CO/N=C(\C(=O)N[C@@H]1C(=O)N2C(C(=O)[O-])=C(C[n+]3ccc(CC(=O)NO)cc3)CS[C@H]12)c1csc(N)n1 (stereo in doubt; 9)                MIC       0.03

Below: the item to evaluate.
Entry CO/N=C(\C(=O)N[C@@H]1C(=O)N2C(C(=O)[O-])=C(C[n+]3ccc4c(S(=O)(=O)O)cccc4c3)CS[C@H]12)c1csc(N)n1 ; MIC = 0.015

* * *

# MIC per entry
Tested on: Enterobacter cloacae
Test: Antibacterial activity against Enterobacter cloacae EB5
Format: functional
Conditions: Enterobacter cloacae; read-out: MIC
Just the number in µg/mL, nothing appended.

                            smiles_notation                system  unit_name  obs_value
0  CO/N=C(\C(=O)N[C@@H]1C(=O)N2C(C(=O)[O-])=C(C[n+]3ccc4occc4c3)CS[C@H]12)c1csc(N)n1  Enterobacter cloacae      µg/mL       0.06

Entry CCC(CC)c1cc[n+](CC2=C(C(=O)[O-])N3C(=O)[C@@H](NC(=O)/C(=N\OC)c4csc(N)n4)[C@H]3SC2)cc1 ; MIC = 0.5

Entry CO/N=C(\C(=O)N[C@@H]1C(=O)N2C(C(=O)[O-])=C(C[n+]3csc(CCOC(C)=O)c3C)CS[C@H]12)c1csc(N)n1 ; MIC = 0.125

Entry CO/N=C(\C(=O)N[C@@H]1C(=O)N2C(C(=O)[O-])=C(C[n+]3cccc4ccsc43)CS[C@H]12)c1csc(N)n1 ; MIC = 0.125

Entry CO/N=C(\C(=O)N[C@@H]1C(=O)N2C(C(=O)[O-])=C(C[n+]3ccc4sc(C(=O)O)cc4c3)CS[C@H]12)c1csc(N)n1 ; MIC = 0.06

Entry C=Cc1sc[n+](CC2=C(C(=O)[O-])N3C(=O)[C@@H](NC(=O)/C(=N\OC)c4csc(N)n4)[C@H]3SC2)c1C ; MIC = 0.25

Entry CO/N=C(\C(=O)N[C@@H]1C(=O)N2C(C(=O)[O-])=C(C[n+]3cccc4ncccc43)CS[C@H]12)c1csc(N)n1 ; MIC = 0.25

* * *

# half-life per entry
Experiment: Terminal half life in dogs at the dose of 60 mg/kg.
Format: ADME, organism-based, Canis lupus familiaris
Design: dose 60 mg/kg
Settings: dog, in vivo
Just the number in h, nothing appended.

Recorded results for 4 molecules are shown here.
In [3]: df
Out[3]:
                            smiles_notation  measured_property  obs_value
0  CO/N=C(\C(=O)N[C@@H]1C(=O)N2C(C(=O)[O-])=C(C[n+]3ccccc3)CS[C@H]12)c1csc(N)n1          half-life       1.67
1  CO/N=C(\C(=O)N[C@@H]1C(=O)N2C(C(=O)[O-])=C(C[n+]3ccc4occc4c3)CS[C@H]12)c1csc(N)n1          half-life       1.33
2  CO/N=C(\C(=O)N[C@@H]1C(=O)N2C(C(=O)[O-])=C(C[n+]3cccc4occc43)CS[C@H]12)c1csc(N)n1          half-life       1.67
3  CO/N=C(\C(=O)N[C@@H]1C(=O)N2C(C(=O)[O-])=C(C[n+]3ccc4sc(C(=O)O)cc4c3)CS[C@H]12)c1csc(N)n1          half-life        1.5

Below: the item to evaluate.
Entry CO/N=C(\C(=O)N[C@@H]1C(=O)N2C(C(=O)[O-])=C(C[n+]3ccc4sc(C)cc4c3)CS[C@H]12)c1csc(N)n1 ; half-life = 1.67

* * *

System: Canis familiaris
Experiment: Percent of dose in dogs urine at the dose of 60 mg/kg.
Type: functional, Canis lupus familiaris
# Percent of dose recovered in urine per entry
Just the number in %, nothing appended.

In [3]: df
Out[3]:
                            smiles_notation  unit_name  obs_value
0  CO/N=C(\C(=O)N[C@@H]1C(=O)N2C(C(=O)[O-])=C(C[n+]3ccc4occc4c3)CS[C@H]12)c1csc(N)n1          %         94
1  CO/N=C(\C(=O)N[C@@H]1C(=O)N2C(C(=O)[O-])=C(C[n+]3ccc4sc(C)cc4c3)CS[C@H]12)c1csc(N)n1          %         64
2  CO/N=C(\C(=O)N[C@@H]1C(=O)N2C(C(=O)[O-])=C(C[n+]3ccccc3)CS[C@H]12)c1csc(N)n1          %         94
3  CO/N=C(\C(=O)N[C@@H]1C(=O)N2C(C(=O)[O-])=C(C[n+]3cccc4occc43)CS[C@H]12)c1csc(N)n1          %         78

Percent of dose recovered in urine value, target or system Canis familiaris, for CO/N=C(\C(=O)N[C@@H]1C(=O)N2C(C(=O)[O-])=C(C[n+]3ccc4sc(C(=O)O)cc4c3)CS[C@H]12)c1csc(N)n1 : 98

* * *

Tested on: Staphylococcus aureus
Assay: Antibacterial activity against penicillin G resistance Staphylococcus aureus
Type: functional
Details: Staphylococcus aureus; read-out: MIC
measured_property: MIC (µg/mL)
Just the number in µg/mL, nothing appended.

>>> df
                                   molecule  unit_name  obs_value
0  CO/N=C(\C(=O)N[C@@H]1C(=O)N2C(C(=O)[O-])=C(C[n+]3ccccc3)CS[C@H]12)c1csc(N)n1      µg/mL          2

Entry CCC(C)Nc1nc2cc[n+](CC3=C(C(=O)[O-])N4C(=O)[C@@H](NC(=O)/C(=N\OC)c5csc(N)n5)[C@H]4SC3)cc2s1 (some centres not stated) ; MIC = 0.5

Entry CO/N=C(\C(=O)N[C@@H]1C(=O)N2C(C(=O)[O-])=C(C[n+]3ccc4sc(N)cc4c3)CS[C@H]12)c1csc(N)n1 ; MIC = 4

Entry CO/N=C(\C(=O)N[C@@H]1C(=O)N2C(C(=O)[O-])=C(C[n+]3ccc4sc(C(=O)O)cc4c3)CS[C@H]12)c1csc(N)n1 ; MIC = 16

Entry CO/N=C(\C(=O)N[C@@H]1C(=O)N2C(C(=O)[O-])=C(C[n+]3cccc4occc43)CS[C@H]12)c1csc(N)n1 ; MIC = 4

Entry CO/N=C(\C(=O)N[C@@H]1C(=O)N2C(C(=O)[O-])=C(C[n+]3cccc4ccccc43)CS[C@H]12)c1csc(N)n1 ; MIC = 1

Entry CO/N=C(\C(=O)N[C@@H]1C(=O)N2C(C(=O)[O-])=C(C[n+]3ccc4sc(C)nc4c3)CS[C@H]12)c1csc(N)n1 ; MIC = 2
